Values were extracted from ChEMBL document CHEMBL1201861.

- System: NCI-H2228;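 note: growth inhibition of human NCI-H2228 cells, read out by a cell viability assay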
- experiment-notes: cells
- Assay type: functional, cell-based, Homo sapiens
- experimental-conditions: nci-h2228
- Description: SANGER: Inhibition of human NCI-H2228 cell growth in a cell viability assay.
pIC50: −log10 of the molar value.

{"compound-structure": "Cc1cc([C@@H](C)Nc2ccccc2C(=O)O)c2nc(N3CCOCC3)cc(=O)n2c1", "pIC50": "< 5.29"}

---

- Test system: SW1463;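 note: growth inhibition of SW1463 cells, determined with a cell viability assay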
- experiment-notes: cells
- Assay type: functional, cell-based, Homo sapiens
- experimental-conditions: Homo sapiens, SW1463
- Description: SANGER: Inhibition of human SW1463 cell growth in a cell viability assay.
pIC50: −log10 of the molar value.
value-type: pIC50

{"molecule": "COc1cc([C@@H]2c3cc4c(cc3[C@@H](O[C@@H]3O[C@@H]5CO[C@@H](C)O[C@H]5[C@H](O)[C@H]3O)[C@H]3COC(=O)[C@H]23)OCO4)cc(OC)c1O [ETOPOSIDE]", "system-under-test": "SW1463", "observed-value": "< 4.80"}
{"molecule": "C=CCNC1=C2C[C@@H](C)C[C@H](OC)[C@H](O)[C@@H](C)/C=C(\\C)[C@H](OC(N)=O)[C@@H](OC)/C=C\\C=C(/C)C(=O)NC(=CC1=O)C2=O [TANESPIMYCIN]", "system-under-test": "SW1463", "observed-value": "< 6.00"}
{"molecule": "C[C@]1(O)C[C@@H](c2nc(-c3ccc4ccc(-c5ccccc5)nc4c3)c3c(N)nccn32)C1 [LINSITINIB]", "system-under-test": "SW1463", "observed-value": "< 5.59"}
{"molecule": "CN(C)C/C=C/C(=O)Nc1cc2c(Nc3ccc(F)c(Cl)c3)ncnc2cc1O[C@H]1CCOC1 [AFATINIB]", "system-under-test": "SW1463", "observed-value": "< 6.30"}
{"molecule": "C=CCc1cccc(/C=N/NC(=O)CN2CCN(Cc3ccccc3)CC2)c1O [PAC-1]", "system-under-test": "SW1463", "observed-value": "< 5.59"}
{"molecule": "O=C(NOCC1CC1)c1ccc(F)c(F)c1Nc1ccc(I)cc1Cl [CI-1040]", "system-under-test": "SW1463", "observed-value": 5.87}
{"molecule": "COc1ccc(-c2ccc3c(N4CCOC[C@@H]4C)nc(N4CCOC[C@@H]4C)nc3n2)cc1CO [AZD-8055]", "system-under-test": "SW1463", "observed-value": "< 5.70"}
{"molecule": "Cc1ccc(Nc2nccc(N(C)c3ccc4c(C)n(C)nc4c3)n2)cc1S(N)(=O)=O [PAZOPANIB]", "system-under-test": "SW1463", "observed-value": "< 5.10"}
{"molecule": "Cn1cc(C2=C(c3ccc(Cl)cc3Cl)C(=O)NC2=O)c2ccccc21 [SB-216763]", "system-under-test": "SW1463", "observed-value": "< 5.00"}
{"molecule": "COC(=O)CNC(=O)C(=O)OC", "system-under-test": "SW1463", "observed-value": 2.75}
